Taken from ChEMBL document CHEMBL1123896.

test system: D(2) dopamine receptor (Rattus norvegicus) (UniProt P61169)
Sequence (P61169 whole entry): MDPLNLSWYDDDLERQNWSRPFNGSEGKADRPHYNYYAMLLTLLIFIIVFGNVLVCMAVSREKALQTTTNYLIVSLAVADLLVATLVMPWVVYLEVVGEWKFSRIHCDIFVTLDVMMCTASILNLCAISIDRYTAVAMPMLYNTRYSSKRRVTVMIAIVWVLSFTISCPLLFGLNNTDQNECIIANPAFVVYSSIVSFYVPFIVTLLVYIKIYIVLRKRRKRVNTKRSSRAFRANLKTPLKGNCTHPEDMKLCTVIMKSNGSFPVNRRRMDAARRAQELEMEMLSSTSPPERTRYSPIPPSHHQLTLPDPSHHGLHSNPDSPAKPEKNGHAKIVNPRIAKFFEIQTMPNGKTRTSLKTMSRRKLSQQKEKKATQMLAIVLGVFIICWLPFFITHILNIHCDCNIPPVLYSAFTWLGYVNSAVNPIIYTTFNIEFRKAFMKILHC
procedure text: Eudisimic index was determined for the compound against Dopamine receptor D2
property measured: EI
Just the number, please.

(Q) For the compound shown here, "Oc1cccc([C@H]2CCCN(CCc3ccccc3)C2)c1" , give the reported EI.
(A) 1.45

(Q) Query "CC(C)N1CCC[C@H](c2cccc(O)c2)C1" next
(A) 1.53

(Q) Query "CCCCN1CCC[C@H](c2cccc(O)c2)C1" next
(A) 0.99

(Q) Param item: "CN1CCC[C@H](c2cccc(O)c2)C1"
(A) 0.32

(Q) Follow-up entry: "Oc1cccc([C@H]2CCCNC2)c1"
(A) 0.6

(Q) Now consider "CCCN1CCC[C@H](c2cccc(O)c2)C1" and answer again.
(A) 0.61
